- Target Desc: Delta-type opioid receptor (Mus musculus)
- Sequence (P32300 whole entry): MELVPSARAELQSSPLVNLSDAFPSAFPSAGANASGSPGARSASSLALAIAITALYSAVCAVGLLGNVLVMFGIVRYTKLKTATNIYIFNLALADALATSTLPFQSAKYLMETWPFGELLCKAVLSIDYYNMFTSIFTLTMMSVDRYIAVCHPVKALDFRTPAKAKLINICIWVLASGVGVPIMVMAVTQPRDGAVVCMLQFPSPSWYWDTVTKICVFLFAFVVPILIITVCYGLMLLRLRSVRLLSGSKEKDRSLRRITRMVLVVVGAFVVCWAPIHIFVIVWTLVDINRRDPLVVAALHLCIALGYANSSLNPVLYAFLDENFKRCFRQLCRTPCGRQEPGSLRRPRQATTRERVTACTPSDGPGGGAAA
- Measurement Description: Agonist activity at delta opioid receptor in mouse vas deferens assessed as inhibition of electrically-stimulated muscle contraction at 10 uM
- Assay type: functional, tissue-based

{"columns": ["Given Smiles", "Unit Of Measure", "inhibition"],
 "data": [
  ["Cc1cc(O)cc(C)c1C[C@H](N)C(=O)NCCc1nc(C)c(C)[nH]c1=O", "%", 25.2],
  ["Cc1cc(O)cc(C)c1C[C@H](N)C(=O)NCCCc1nc(C)c(C)[nH]c1=O", "%", 31.1],
  ["Cc1cc(O)cc(C)c1C[C@H](N)C(=O)NCc1nc(C)c(C)[nH]c1=O", "%", 28.1],
  ["Cc1cc(O)cc(C)c1C[C@H](N)C(=O)NCCCCc1nc(C)c(C)[nH]c1=O", "%", 26.2],
  ["Cc1c[nH]c(=O)c(CCCCNC(=O)[C@@H](N)Cc2c(C)cc(O)cc2C)n1", "%", 25.7]
]}

====

- Organism: Homo sapiens
- Measurement Description: Selectivity for human mu opioid receptor over human delta opioid receptor

{"columns": ["Given Smiles", "Ratio Ki"],
 "data": [
  ["Cc1cc(O)cc(C)c1C[C@H](N)C(=O)NCc1nc(C)c(C)[nH]c1=O", 5.4],
  ["Cc1cc(O)cc(C)c1C[C@H](N)C(=O)NCCCCc1nc(C)c(Cc2ccccc2)[nH]c1=O", 20],
  ["Cc1cc(O)cc(C)c1C[C@H](N)C(=O)NCCCCc1[nH]c(=O)c(C)nc1C", 14],
  ["Cc1c[nH]c(=O)c(CCCCNC(=O)[C@@H](N)Cc2c(C)cc(O)cc2C)n1", 119],
  ["Cc1cc(O)cc(C)c1C[C@H](N)C(=O)NCCCc1nc(C)c(CCc2ccccc2)[nH]c1=O", 69],
  ["Cc1cc(O)cc(C)c1C[C@H](N)C(=O)NCCc1nc(C)c(C)[nH]c1=O", 1.2],
  ["Cc1cc(O)cc(C)c1C[C@H](N)C(=O)NCCCCc1nc(C)c(C)[nH]c1=O", 18]
]}

====

- Target Desc: Mu-type opioid receptor (Cavia porcellus)
- Sequence (P97266 whole entry): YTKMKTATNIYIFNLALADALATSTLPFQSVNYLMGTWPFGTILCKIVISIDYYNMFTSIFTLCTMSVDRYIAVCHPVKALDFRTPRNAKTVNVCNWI
- Measurement Description: Agonist activity at mu opioid receptor in guinea pig ileum assessed as inhibition of electrically-stimulated muscle contraction at 10 uM
- Assay type: functional, tissue-based
Property Measured: inhibition (%)

{"columns": ["Given Smiles", "Unit Of Measure", "Endpoint Result"],
 "data": [
  ["Cc1cc(O)cc(C)c1C[C@H](N)C(=O)NCCCCc1nc(C)c(Cc2ccccc2)[nH]c1=O", "%", 39.5],
  ["Cc1cc(O)cc(C)c1C[C@H](N)C(=O)NCc1nc(C)c(C)[nH]c1=O", "%", 20.6],
  ["Cc1c[nH]c(=O)c(CCCCNC(=O)[C@@H](N)Cc2c(C)cc(O)cc2C)n1", "%", 47.6],
  ["Cc1cc(O)cc(C)c1C[C@H](N)C(=O)NCCc1nc(C)c(C)[nH]c1=O", "%", 45],
  ["Cc1cc(O)cc(C)c1C[C@H](N)C(=O)NCCCc1nc(C)c(Cc2ccccc2)[nH]c1=O", "%", 36.7],
  ["Cc1cc(O)cc(C)c1C[C@H](N)C(=O)NCCCCc1[nH]c(=O)c(C)nc1C", "%", 30.1],
  ["Cc1cc(O)cc(C)c1C[C@H](N)C(=O)NCCCc1nc(C)c(C)[nH]c1=O", "%", 22.7],
  ["Cc1cc(O)cc(C)c1C[C@H](N)C(=O)NCCCCc1nc(C)c(C)[nH]c1=O", "%", 35.1],
  ["Cc1cc(O)cc(C)c1C[C@H](N)C(=O)NCCCCc1[nH]c(=O)cnc1C", "%", 37.1]
]}

====

- Target Desc: Mu-type opioid receptor (Cavia porcellus)
- Measurement Description: Antagonist activity at mu opioid receptor in guinea pig ileum
- Format: functional, tissue-based
- Details: read-out: pA2 (converted)

{"columns": ["Given Smiles", "Kb"],
 "data": [
  ["Cc1cc(O)cc(C)c1C[C@H](N)C(=O)NCCCCc1[nH]c(=O)c(C)nc1C", "> 1000 nM"],
  ["Cc1cc(O)cc(C)c1C[C@H](N)C(=O)NCCCCc1[nH]c(=O)cnc1C", "> 1000 nM"],
  ["Cc1cc(O)cc(C)c1C[C@H](N)C(=O)NCCCCc1nc(C)c(C)[nH]c1=O", "200 nM"],
  ["Cc1cccc(C)c1Cc1[nH]c(=O)c(CCCCNC(=O)[C@@H](N)Cc2c(C)cc(O)cc2C)nc1C", "> 1000 nM"],
  ["Cc1cc(O)cc(C)c1C[C@H](N)C(=O)NCCCc1nc(C)c(CCc2ccccc2)[nH]c1=O", "> 1000 nM"]
]}

====

- Target Desc: Delta-type opioid receptor (Mus musculus)
- Measurement Description: Antagonist activity at delta opioid receptor in mouse vas deferens
- Type: functional, tissue-based
- Details: read-out: pA2 (converted)
Kb strictly under 1000 nM means true (1); at 1000 nM or over means false (0).

{"columns": ["Given Smiles", "Label"],
 "data": [
  ["Cc1cccc(C)c1Cc1[nH]c(=O)c(CCCCNC(=O)[C@@H](N)Cc2c(C)cc(O)cc2C)nc1C", "true (1)"],
  ["Cc1cc(O)cc(C)c1C[C@H](N)C(=O)NCCCCc1[nH]c(=O)c(C)nc1C", "false (0)"],
  ["Cc1cc(O)cc(C)c1C[C@H](N)C(=O)NCCCc1nc(C)c(Cc2ccccc2)[nH]c1=O", "false (0)"],
  ["Cc1cc(O)cc(C)c1C[C@H](N)C(=O)NCCCc1nc(C)c(C)[nH]c1=O", "false (0)"],
  ["Cc1c[nH]c(=O)c(CCCCNC(=O)[C@@H](N)Cc2c(C)cc(O)cc2C)n1", "false (0)"],
  ["Cc1cc(O)cc(C)c1C[C@H](N)C(=O)NCCc1nc(C)c(C)[nH]c1=O", "false (0)"],
  ["Cc1cc(O)cc(C)c1C[C@H](N)C(=O)NCCCCc1nc(C)c(C)[nH]c1=O", "false (0)"],
  ["Cc1cc(O)cc(C)c1C[C@H](N)C(=O)NCCCCc1nc(C)c(CCc2ccccc2)[nH]c1=O", "true (1)"],
  ["Cc1cc(O)cc(C)c1C[C@H](N)C(=O)NCc1nc(C)c(C)[nH]c1=O", "false (0)"],
  ["Cc1cc(O)cc(C)c1C[C@H](N)C(=O)NCCCc1nc(C)c(CCc2ccccc2)[nH]c1=O", "false (0)"],
  ["Cc1cc(O)cc(C)c1C[C@H](N)C(=O)NCCCCc1nc(C)c(Cc2ccccc2)[nH]c1=O", "true (1)"],
  ["Cc1cc(O)cc(C)c1C[C@H](N)C(=O)NCCCCc1[nH]c(=O)cnc1C", "false (0)"]
]}

====

- Target Desc: Delta-type opioid receptor (Homo sapiens)
- Sequence (P41143 whole entry): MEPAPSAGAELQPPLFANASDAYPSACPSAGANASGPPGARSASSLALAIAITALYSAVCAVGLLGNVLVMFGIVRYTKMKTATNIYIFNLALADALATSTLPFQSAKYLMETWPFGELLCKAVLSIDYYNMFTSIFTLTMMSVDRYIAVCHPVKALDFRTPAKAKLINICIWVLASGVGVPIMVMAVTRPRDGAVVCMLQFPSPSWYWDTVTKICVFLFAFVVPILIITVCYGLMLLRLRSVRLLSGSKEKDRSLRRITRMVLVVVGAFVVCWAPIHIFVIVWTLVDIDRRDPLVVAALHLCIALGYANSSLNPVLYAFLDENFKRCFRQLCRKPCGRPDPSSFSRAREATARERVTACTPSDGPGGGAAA
- Measurement Description: Displacement of [3H]deltorphin 2 from delta opioid receptor
just bin them by Ki: L = under 60 nM, M = from 60 nM up to 200 nM, H = 200 nM and over

{"columns": ["Given Smiles", "Label"],
 "data": [
  ["Cc1cc(O)cc(C)c1C[C@H](N)C(=O)NCCCCc1[nH]c(=O)c(C)nc1C", "H"],
  ["Cc1cc(O)cc(C)c1C[C@H](N)C(=O)NCCCCc1nc(C)c(Cc2ccccc2)[nH]c1=O", "L"],
  ["Cc1cc(O)cc(C)c1C[C@H](N)C(=O)NCCCc1nc(C)c(C)[nH]c1=O", "H"],
  ["Cc1cc(O)cc(C)c1C[C@H](N)C(=O)NCCc1nc(C)c(C)[nH]c1=O", "M"],
  ["Cc1cc(O)cc(C)c1C[C@H](N)C(=O)NCCCCc1nc(C)c(C)[nH]c1=O", "M"],
  ["Cc1cccc(C)c1Cc1[nH]c(=O)c(CCCCNC(=O)[C@@H](N)Cc2c(C)cc(O)cc2C)nc1C", "L"],
  ["Cc1cc(O)cc(C)c1C[C@H](N)C(=O)NCCCCc1nc(C)c(CCc2ccccc2)[nH]c1=O", "L"],
  ["Cc1c[nH]c(=O)c(CCCCNC(=O)[C@@H](N)Cc2c(C)cc(O)cc2C)n1", "M"],
  ["Cc1cc(O)cc(C)c1C[C@H](N)C(=O)NCCCc1nc(C)c(CCc2ccccc2)[nH]c1=O", "L"],
  ["Cc1cc(O)cc(C)c1C[C@H](N)C(=O)NCCCCc1[nH]c(=O)cnc1C", "H"],
  ["Cc1cc(O)cc(C)c1C[C@H](N)C(=O)NCc1nc(C)c(C)[nH]c1=O", "H"]
]}

The measured values listed here are drawn from ChEMBL document CHEMBL1137484.
